Value source: PubChem BioAssay (NCI)

Tested on: OVCAR-4 ovarian
Assay: NCI-60 one-dose screen, 48 h (100 = growth as untreated, 0 = no growth, -100 = all killed)
Conditions: 10 µM unless noted
The panel holds about 83,000 compounds, 20% with a hit somewhere; the sample as a whole holds those more often.
Entries and their growth
Measured Attribute: growth (%)

{"Molecule": "CC(C)=CCC[C@](C)(O)C1CC[C@]2(C)[C@@H]1CC[C@@H]1[C@@]3(C)CC/C(=N\\OCCC#N)C(C)(C)[C@@H]3CC[C@]12C (some centres undefined)", "Target Under Test": "OVCAR-4 ovarian", "Measured Attribute": "growth", "Units Text": "%", "Observed Measurement": 79.9}
{"Molecule": "CN(C)CCOc1nc2c3cc([N+](=O)[O-])ccc3nn2c2ccccc12", "Target Under Test": "OVCAR-4 ovarian", "Measured Attribute": "growth", "Units Text": "%", "Observed Measurement": 62.4}
{"Molecule": "O=C1C(Nc2ccc(Br)cc2)=C(I)C(=O)c2ncccc21", "Target Under Test": "OVCAR-4 ovarian", "Measured Attribute": "growth", "Units Text": "%", "Observed Measurement": -95.6}
{"Molecule": "CC(C)C(=O)Nc1ncc(C(=O)NCCN(Cc2ccccc2)C(=O)c2ccc(S(=O)(=O)Nc3ccccc3)cc2)s1", "Target Under Test": "OVCAR-4 ovarian", "Measured Attribute": "growth", "Units Text": "%", "Observed Measurement": 112}
{"Molecule": "C#Cc1ccc(NC(=O)Cc2ccc(/C=C/C(=O)c3nccn3C)cc2)cc1", "Target Under Test": "OVCAR-4 ovarian", "Measured Attribute": "growth", "Units Text": "%", "Observed Measurement": 69.9}
{"Molecule": "CNC(=O)c1cc(Oc2cccc3nc(NC(=O)Nc4ccc(F)cc4F)ccc23)ccn1", "Target Under Test": "OVCAR-4 ovarian", "Measured Attribute": "growth", "Units Text": "%", "Observed Measurement": -63.4}
{"Molecule": "Cc1ccc(Nc2cc(N)nc(N)n2)cc1", "Target Under Test": "OVCAR-4 ovarian", "Measured Attribute": "growth", "Units Text": "%", "Observed Measurement": 96.9}
{"Molecule": "Nc1nc(Nc2ccc([N+](=O)[O-])cc2O)nc(C(Cl)(Cl)Cl)n1", "Target Under Test": "OVCAR-4 ovarian", "Measured Attribute": "growth", "Units Text": "%", "Observed Measurement": 55.2}
{"Molecule": "CC/C(=C(/c1ccc(Cl)cc1)c1ccc(OCCCN(C)C)cc1)c1ccc(OC)cc1", "Target Under Test": "OVCAR-4 ovarian", "Measured Attribute": "growth", "Units Text": "%", "Observed Measurement": 86.6}

----------
System: SNB-19 CNS
Assay: NCI-60 one-dose screen, 48 h (100 = growth as untreated, 0 = no growth, -100 = all killed)
Settings: 10 µM unless noted
This is part of a sample that, as a whole, favours compounds with a hit. Of some 83,000 tested, about 20% had one in any assay.

{"Compound": "Cc1[nH]c(C(=O)Nc2ccc(C(N)=O)cc2OC(C)C)c(Cl)c1Cl", "Units Text": "%", "growth": 99}
{"Compound": "CC/C(=C(/c1ccc(Cl)cc1)c1ccc(OCCCN(C)C)cc1)c1ccc(OC)cc1", "Units Text": "%", "growth": 82.8}
{"Compound": "CCCN1C(=O)N(CCC)C2C1NC(=S)N2/N=C/C=C/c1ccccc1OC (centres undefined)", "Units Text": "%", "growth": 24.6}
{"Compound": "CCCC[N+]1(C)CCN=C1Cc1ccccc1 (centres undefined)", "Units Text": "%", "growth": 104}
{"Compound": "Nc1cc(-c2ccc(Cl)cc2)nn1-c1nc(-c2ccc(Br)cc2)cs1", "Units Text": "%", "growth": 91.4}
{"Compound": "C=CCn1c(SCC(=O)Nc2ccc(C(=O)/C=C/c3cc(OC)c(OC)c(OC)c3)cc2)nnc1-c1cc(-c2ccc(S(N)(=O)=O)cc2)nc2ccccc12", "Units Text": "%", "growth": 74.2}
{"Compound": "O=C1NC(=O)C(=Cc2cc(-c3ccc(Cl)cc3)n(-c3ccccc3)n2)C(=O)N1", "Units Text": "%", "growth": 87.3}
{"Compound": "CCOC(=O)c1c(N)sc2cc(O)ccc12", "Units Text": "%", "growth": 106}
{"Compound": "CN(C)CC1C(=O)O[C@H]2[C@H]1CC/C(COC(=O)NCc1ccc(Cn3c(=O)sn(CCCI)c3=O)cc1)=C\\CC[C@@]1(C)O[C@@H]21 (some centres undefined)", "Units Text": "%", "growth": 89.9}
